target: purified Z-AAT protein (Homo sapiens, UniProt P01009, E366K)
Construct: Purified Z-AAT protein from human plasma
Sequence (P01009 25-418 E366K): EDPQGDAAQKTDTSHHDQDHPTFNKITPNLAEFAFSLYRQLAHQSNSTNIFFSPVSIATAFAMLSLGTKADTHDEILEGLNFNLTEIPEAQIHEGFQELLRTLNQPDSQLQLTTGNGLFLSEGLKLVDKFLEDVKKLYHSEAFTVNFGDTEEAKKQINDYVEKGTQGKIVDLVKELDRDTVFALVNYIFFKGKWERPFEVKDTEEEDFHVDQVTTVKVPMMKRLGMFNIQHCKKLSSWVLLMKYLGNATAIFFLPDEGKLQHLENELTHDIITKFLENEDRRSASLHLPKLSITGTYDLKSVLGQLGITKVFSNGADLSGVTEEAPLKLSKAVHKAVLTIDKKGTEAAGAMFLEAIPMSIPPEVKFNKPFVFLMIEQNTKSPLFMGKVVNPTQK
method description: Biochemical Assay (Z-AAT Elastase Activity Assay)
measurement conditions: purified Z-AAT pre-incubated with compound 1 hour, then hNE; N.D. = activity not detected up to 30 μM
reported metric: IC50

Answered examples (2):
Cc1cc(-n2c(C3(CC#N)COC3)c(-c3ccc(C(=O)O)cc3)c3c(O)cc(F)cc32)ccc1F; 2 to 5 µM
COCC(COC)c1c(-c2ccc(C(=O)O)cc2)c2c(O)cccc2n1-c1ccc(F)c(F)c1; > 5 µM

IC50 of COCC1(c2c(-c3ccc(C(=O)O)c(F)c3F)c3c(O)cc(F)cc3n2-c2ccc(F)c(OC)c2)CCC1 , assay on purified Z-AAT protein (Homo sapiens, UniProt P01009, E366K), is > 5 µM

====

target: purified Z-AAT protein (Homo sapiens, UniProt P01009, E366K)
Construct: Purified Z-AAT protein from human plasma
method description: Biochemical Assay (Z-AAT Elastase Activity Assay)
measurement conditions: purified Z-AAT pre-incubated with compound 1 hour, then hNE; N.D. = activity not detected up to 30 μM
reported metric: IC50

Answered examples (3):
O=C(O)C1CC=C(c2c(C3CCOCC3)n(-c3ccc(F)cc3)c3cccc(O)c23)CC1 (stereo not drawn) [Compound 77]; > 30000 nM
CC(C)(CC#N)c1c(-c2ccc(C(=O)O)s2)c2c(O)c(F)ccc2n1-c1ccc(F)c(F)c1 [Compound 291]; < 2000 nM
Cc1cc(-n2c(C3CCOCC3)c([C@H]3C[C@@H](C(=O)O)C3)c3cc(F)ccc32)ccc1F [Compound W15]; > 30000 nM

Please look at the following compound next.
Recorded IC50 (compound CC(C)c1c(-c2ccc(C(=O)O)cc2)c2c(N)cccc2n1-c1ccc(F)cc1 [Compound 437] ): < 2000 nM

====

target: NL20 human bronchial epithelial cells expressing human Z-AAT (Homo sapiens, UniProt P01009, E366K)
Construct: doxycycline added with compounds)
method description: AAT Function Assay (MSD Assay NL20-SI Cell Line)
measurement conditions: read-out: NL20 Functional EC50
The compounds listed here are annotated with their EC50.

Answered examples (2):
Cc1cc(-n2c(C(C)(C)CC#N)c(-c3ccc(C(=O)O)s3)c3c(O)cc(F)cc32)ccc1F; < 0.5 µM
O=C(O)c1ccc(-n2c(C3CCOCC3)c(-c3ccc(F)cc3)c3cccc(O)c32)cc1; < 0.5 µM

Recorded EC50 (compound CCC1(c2c(-c3ccc(C(=O)O)cc3)c3c(O)cc(Cl)cc3n2-c2ccc(F)c(OC)c2)COC1 ): < 0.5 µM

Recorded EC50 (compound O=C(O)c1ccc(-c2c(C3CCOCC3)n(-c3ccc(F)cc3)c3cc(F)cc(O)c23)c(F)c1 ): < 0.5 µM

Recorded EC50 (compound COc1cc(-n2c(C(C)(C)CC#N)c(-c3ccc(C(=O)O)cc3)c3c(O)cc(F)cc32)ccc1F ): < 0.5 µM

Recorded EC50 (compound O=C(O)C1CC2(C1)CC(c1c(C(F)(F)F)n(-c3ccc(F)cc3)c3cccc(O)c13)C2 (stereo not drawn) ): 0.5 to 2 µM

Recorded EC50 (compound CC(C)c1c(-c2ccc(C(=O)O)cc2)c2c(O)cccc2n1-c1ccc(F)cc1 ): < 0.5 µM

Recorded EC50 (compound Cc1cc(-n2c(C(C)(C)CC#N)c(-c3cnc(C(=O)O)c(Cl)c3)c3c(O)cc(F)cc32)ccc1F ): > 2 µM

Recorded EC50 (compound O=C(O)c1ccc(-c2c(C3CCOCC3)n(-c3ccc(F)cc3)c3cccc(O)c23)cc1C(F)(F)F ): > 2 µM

Recorded EC50 (compound Cc1cc(-n2c(C3(O)CCCC3)c(-c3ccc(C(=O)O)cc3)c3c(O)cc(F)cc32)ccc1F ): < 0.5 µM

Recorded EC50 (compound COCC(C)(C)c1c(CC(=O)O)c2c(O)cc(F)cc2n1-c1ccc(F)c(C)c1 ): > 2 µM

Recorded EC50 (compound O=C(O)c1cccc(-c2c(C3CCOCC3)n(-c3ccc(F)cc3)c3cccc(O)c23)c1 ): > 2 µM

====

target: NL20 human bronchial epithelial cells expressing human Z-AAT (Homo sapiens, UniProt P01009, E366K)
Construct: doxycycline added with compounds)
method description: AAT Function Assay (MSD Assay NL20-SI Cell Line)
measurement conditions: read-out: NL20 Functional EC50
reported metric: EC50

Answered examples (3):
O=C(O)c1ccc(-c2c(C3CCOC3)n(-c3ccc(F)cc3)c3cccc(O)c23)cc1 (stereo not shown); > 2000 nM
COCC(C)(C)c1c(-c2ccc3cc(C(=O)O)[nH]c3c2)c2c(O)cc(F)cc2n1-c1ccc(F)c(OC)c1; < 500 nM
COCCC(C)(C)c1c(-c2ccc(C(=O)O)cc2)c2c(O)cccc2n1-c1ccc(F)cc1; < 500 nM

Recorded EC50 (compound CC(C)(CO)c1c(-c2ccc(C(=O)O)cc2)c2c(O)c(F)ccc2n1C1CCC(F)(F)CC1 ): > 2000 nM

Recorded EC50 (compound COc1cc(-n2c(C34CCC(OC)(CC3)C4)c(-c3ccc(C(=O)O)c(C)c3)c3c(O)cc(F)cc32)ccc1F ): < 500 nM

Recorded EC50 (compound CS(=O)(=O)Nc1ccc(-c2c(C3CCOCC3)n(-c3ccc(F)c(F)c3)c3cc(F)cc(O)c23)cc1 ): 500 to 2000 nM

Recorded EC50 (compound O=C(O)c1ccc(-c2c(C3CCOCC3)n(C3CCC(F)(F)CC3)c3cccc(O)c23)cc1 ): > 2000 nM

====

The molecules listed here are annotated with their pEC50.
target: NL20 human bronchial epithelial cells expressing human Z-AAT (Homo sapiens, UniProt P01009, E366K)
Construct: expressed in transfected cells; host or cells: NL20 human bronchial epithelial cells (NL20-SI line; doxycycline added with compounds)
method description: AAT Function Assay (MSD Assay NL20-SI Cell Line)
Format: cell-based
measurement conditions: read-out: NL20 Functional EC50
pEC50: −log10 of the molar value.

Answered examples (4):
COC1(C(=O)O)CC(c2c(C(C)C)n(-c3ccc(F)c(C)c3)c3ccc(F)cc23)C1 (single isomer, unassigned) [Compound W11]; < 5.70
O=C(O)c1ccc(-c2c(C(=O)N3CCCC3)n(-c3ccc(F)cc3)c3cccc(O)c23)cc1; < 5.70
Cc1cc(-n2c(C(C)(C)CC#N)c(-c3ccc(C(=O)O)cc3)c3c(N)cc(F)cc32)ccc1F; > 6.30
COc1ccc(-n2c(C(C)(C)CC#N)c(-c3ccc(C(=O)O)cc3)c3c(O)cc(F)cc32)cc1F; 5.70 to 6.30

Recorded pEC50 (molecule CCC1(c2c(-c3ccc(C(=O)O)cc3)c3c(O)c(F)ccc3n2-c2ccc(F)c(F)c2)COC1 ): 5.70 to 6.30

Recorded pEC50 (molecule O=C(O)c1ccc(-c2c(C3CCOCC3)n(-c3ccc(F)c(Cl)c3)c3cccc(O)c23)cc1 ): > 6.30

Recorded pEC50 (molecule COCC(C)(C)c1c(-c2ccc(C(=O)O)c(F)c2)c2c(O)cc(F)cc2n1-c1ccc(F)c(F)c1 ): > 6.30

Recorded pEC50 (molecule COCC(C)(C)c1c(-c2ccc(C(=O)O)cc2F)c2c(O)cccc2n1-c1ccc(F)cc1 ): 5.70 to 6.30

Recorded pEC50 (molecule Cc1cc(-n2c(C3CCOCC3)c(-c3cc(F)c(C(=O)O)c(F)c3)c3c(O)cc(F)cc32)ccc1F ): 5.70 to 6.30

Recorded pEC50 (molecule Cc1cc(-n2c(C(C)(C)COC(=O)N(C)C)c(-c3ccc(C(=O)O)cc3)c3c(O)c(F)ccc32)ccc1F ): > 6.30

Recorded pEC50 (molecule CS(=O)(=O)N1CCC(c2c(-c3ccc(C(=O)O)cc3)c3c(O)cccc3n2-c2ccc(F)cc2)C1 (centres unmarked) ): < 5.70

Recorded pEC50 (molecule O=C(O)c1ccc(-n2c(C3CCOCC3)c(-c3ccc(F)cc3)c3cccc(O)c32)c(F)c1 ): > 6.30

Recorded pEC50 (molecule Cc1cc(-n2c(C(C)(C)CO)c(-c3ccc(C(=O)O)cc3)c3c(O)c(F)ccc32)ccc1F ): > 6.30

====

target: purified Z-AAT protein (Homo sapiens, UniProt P01009, E366K)
Construct: Purified Z-AAT protein from human plasma
method description: Biochemical Assay (Z-AAT Elastase Activity Assay)
measurement conditions: purified Z-AAT pre-incubated with compound 1 hour, then hNE; N.D. = activity not detected up to 30 μM
The compounds listed here are annotated with their IC50.

Cc1cc(-n2c(C3(O)CCCCC3)c(-c3ccc(C(=O)O)cc3)c3c(O)cc(F)cc32)ccc1F [Compound 460]; > 30 µM

IC50 of CC1(c2c(-c3ccc(C(=O)O)cc3)c3c(O)cccc3n2-c2ccc(F)cc2)COC1 [Compound 194] , assay on purified Z-AAT protein (Homo sapiens, UniProt P01009, E366K), is > 30 µM

IC50 of COCC(C)(C)c1c(-c2ccc(C(=O)O)cc2)c2c(O)cc(Cl)cc2n1-c1ccc(F)c(C)c1 [Compound 348] , assay on purified Z-AAT protein (Homo sapiens, UniProt P01009, E366K), is < 2 µM

IC50 of Cc1cc(-n2c(C(C)(C)CC#N)c(-c3ccc(C(=O)O)c(N)c3)c3c(O)c(F)ccc32)ccc1F [Compound 364] , assay on purified Z-AAT protein (Homo sapiens, UniProt P01009, E366K), is < 2 µM

IC50 of O=C(O)COc1ccc(-c2c(C3CCOCC3)n(-c3ccc(F)cc3)c3cccc(O)c23)cc1 [Compound 84] , assay on purified Z-AAT protein (Homo sapiens, UniProt P01009, E366K), is > 30 µM

IC50 of O=C(O)c1ccc(-c2c(C3CCOCC3)n(-c3ccc(F)cc3)c3cccc(O)c23)cc1F [Compound 96] , assay on purified Z-AAT protein (Homo sapiens, UniProt P01009, E366K), is > 5 µM

IC50 of O=C(O)c1ccc(-c2c(C3CCOC3)n(-c3ccc(F)cc3)c3cccc(O)c23)cc1 (stereo not shown) [Compound 183] , assay on purified Z-AAT protein (Homo sapiens, UniProt P01009, E366K), is > 5 µM
